B1: MIA2 (parent)
chain: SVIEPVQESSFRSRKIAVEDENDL

# Variants of: B1
# method-summary: protein stability index of a GFP-peptide fusion (GPS, HEK-293T) (PSI 1-6); higher = more stable;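 further: lentivirally expressed fusions sorted by FACS into six bins by GFP to DsRed ratio, PSI derived from sequencing read proportions per bin multiplied by bin number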
# test-conditions: c terminus: a fixed tail appended

# mutation-list, protein stability index
measured = [
    ("V18F", 5.36),
    ("A17T", 5.09),
    ("V18P", 5.32),
    ("V18R", 5.72),
    ("F11Q", 4.71),
    ("I3V", 5.62),
    ("V6G", 5.75),
]
